system: St. pneumoniae SL199T; assay: MIC, standard microdilution; type: cell-based, Streptococcus pneumoniae
measured.endpoint: minimum inhibitory concentration (MIC) (µg/mL)

Recorded minimum inhibitory concentration (MIC), per entry:
# smiles.record, minimum inhibitory concentration (MIC) / µg/mL
data = [
    ("CC[C@H]1OC(=O)[C@H](C)C(=O)[C@H](C)[C@@H](O[C@@H]2O[C@H](C)C[C@H](N(C)C)[C@H]2O)[C@](C)(OC)C[C@@H](C)C(=O)[C@H](C)[C@H]2[C@H](Sc3ccc(OC)c(OC)c3)C(=O)O[C@@]21C", 8),
    ("CC[C@H]1OC(=O)[C@H](C)C(=O)[C@H](C)[C@@H](O[C@@H]2O[C@H](C)C[C@H](N(C)C)[C@H]2O)[C@](C)(OC)C[C@@H](C)C(=O)[C@H](C)[C@H]2[C@H](SCCn3ccc(=O)[nH]c3=O)C(=O)O[C@@]21C", 1),
]

P = CC[C@H]1OC(=O)[C@H](C)C(=O)[C@H](C)[C@@H](O[C@@H]2O[C@H](C)C[C@H](N(C)C)[C@H]2O)[C@](C)(OC)C[C@@H](C)C(=O)[C@H](C)[C@H]2[C@H](SCCn3ccnc3)C(=O)O[C@@]21C
Q = CC[C@H]1OC(=O)[C@H](C)C(=O)[C@H](C)[C@@H](O[C@@H]2O[C@H](C)C[C@H](N(C)C)[C@H]2O)[C@](C)(OC)C[C@@H](C)C(=O)[C@H](C)[C@H]2[C@H](SCCn3cnc4c(N(C)C)ncnc43)C(=O)O[C@@]21C
R = CC[C@H]1OC(=O)[C@H](C)C(=O)[C@H](C)[C@@H](O[C@@H]2O[C@H](C)C[C@H](N(C)C)[C@H]2O)[C@](C)(OC)C[C@@H](C)C(=O)[C@H](C)[C@H]2[C@H](SC)C(=O)O[C@@]21C
*Q* Reorder: minimum inhibitory concentration (MIC), max to min. Your task in answering is to list the labels in the requested order.
*A* R, P, Q
(R: 16 µg/mL, P: 8 µg/mL, Q: 1 µg/mL)

Hey, just so you know, these numbers are from patent US6740642B2.
